Parameter growth: see the listing below.
- Test system: SK-MEL-28 melanoma
- procedure-details: NCI-60 one-dose screen, 48 h (100 = growth as untreated, 0 = no growth, -100 = all killed)
- particulars: 10 µM unless noted
About 83,000 compounds went through this panel and 20% of them were active in at least one assay; those are over-represented in the sample as a whole.
State the answer as a number, implicitly in %.

Record excerpt, results attached:
>  <compound>
NC(=O)c1ncn(C2OC(CO)C(O)C2O)n1 (stereo not drawn)

>  <observed-measurement>
106

$$$$
>  <compound>
COc1cccc2cc(-c3cc4ccccc4[nH]3)/c(=N/C(=S)Nc3ccc(C)cc3)oc12

>  <observed-measurement>
78.4

$$$$

Request: // lookup growth for CCCC1C(C(=O)OCC)=C(N)Oc2cc(O)ccc21 (stereo not drawn)
Response: 114

* * *

- System: HCC-2998 colon
- procedure-details: NCI-60 one-dose screen, 48 h
- particulars: 10 µM unless noted
The panel holds about 83,000 compounds, 20% with a hit somewhere; the sample as a whole holds those more often. Active and inactive are the calls of the source. Rule for the calls: active = growth percent below 10; inactive = the rest.
API: response.call in active, inactive

Previously resolved entries follow.
>  <compound>
CC(=O)OCCCCCNc1ccccc1

>  <class-assignment>
inactive

$$$$
>  <compound>
NC(=O)c1cccc(-n2ccc3cc(NC(=O)Nc4cc(C(F)(F)F)cc(C(F)(F)F)c4)ccc32)n1

>  <class-assignment>
inactive

$$$$
>  <compound>
COc1ccc(C(=O)c2cc3c(N)c(C(=O)Nc4ccc(Br)cc4)sc3nc2C)cc1

>  <class-assignment>
inactive

$$$$
>  <compound>
O=C(N/N=C/c1cccnc1)c1ccccc1Nc1cccc(C(F)(F)F)c1

>  <class-assignment>
inactive

$$$$

Request: Hi, sorry to bother you, what did the test record for C1=C2CNCC3=Cc4ccc5ccccc5c4OC23Oc2c1ccc1ccccc21 ?
Response: inactive

Request: Record: O=c1[nH]nc(-c2ccc(Cl)cc2)cc1Cc1cccc([N+](=O)[O-])c1
Response: inactive

Request: Record: COc1ccc(C(=O)c2cc3c(N)c(C(=O)Nc4cccc(Cl)c4C)sc3nc2C)cc1
Response: inactive

Request: Record: COc1cc2nc(-c3ccc(C(F)(F)F)cc3)cc(OCCCN3CCC(O)CC3)c2cc1OC
Response: inactive

Request: Record: COc1cc(-c2cc(=O)oc3cc(O)ccc23)c(OC)c2c1OCO2
Response: inactive

* * *

- Test system: PC-3 prostate
- procedure-details: NCI-60 one-dose screen, 48 h (100 = growth as untreated, 0 = no growth, -100 = all killed)
- particulars: 10 µM unless noted
This is part of a sample that, as a whole, favours compounds with a hit. Of some 83,000 tested, about 20% had one in any assay.
reported-endpoint: growth (%)
State the answer as a number, implicitly in %.

Record excerpt, results attached:
>  <compound>
O=S(=O)(NCCCNc1nccc(-c2c(-c3cccc(O)c3)nc3occn23)n1)c1ccc(Br)cc1

>  <growth [%]>
91.1

$$$$
>  <compound>
CCN(CC)CCSCCCNc1c(C)cnc2cc(Cl)ccc12

>  <growth [%]>
85.1

$$$$
>  <compound>
COc1ccc(C(O)c2cc3c(N)c(C(=O)Nc4ccc(Br)cc4)sc3nc2C)cc1 (stereo not drawn)

>  <growth [%]>
18.2

$$$$
>  <compound>
Cn1c(COC(=O)NCCN2CCOCC2)nc2c(N3CCOCC3)nc(-c3ccccc3)nc21

>  <growth [%]>
-71.2

$$$$
>  <compound>
CCOC(=O)c1cnc2c(cnn2CC)c1NN=C(C)C

>  <growth [%]>
98.4

$$$$

Request: Entry CC(=O)c1c(-c2ccc(OC(F)(F)F)cc2)nc2ccccn12 , system PC-3 prostate: what growth was measured?
Response: 95.1

Request: Record: C(=C\c1n(Cc2ccc3ccccc3c2)c(-c2ccccc2)c(-c2ccccc2)[n+]1Cc1ccc2ccccc2c1)/c1ccccc1
Response: -81.2

Request: Record: CC1CCN(C(=O)OCc2nc3nc(Cl)nc(N4CCOCC4)c3[nH]2)CC1
Response: -59.2

Request: Record: CCCCc1ccc(Nc2nnc(SCC(=O)NC(=O)NCC)s2)cc1
Response: 91

Request: Record: COc1cc(C(=O)/C=C/c2c(C)n([O-])c3ccc(Cl)cc3[n+]2=O)cc(OC)c1OC
Response: 46.7
